experiment: Aqueous solubility in buffer vs acetonitrile/water (1/1), LC-UV; type: physicochemical; conditions: kinetic from dmso stock, buffer pH 2.2, 24 h shaking, 2.5% DMSO
Where solubility at 24 h equals or exceeds 100 µg/mL, the correct label is Y; where it does not, the label is N.

Use these answered entries as a reference point.
CC(C)c1ccccc1-c1ccc(F)c2c1CC[C@H]2Nc1ccc([C@H]2C[C@@H]2C(=O)O)cn1	N
COc1c(F)c(F)c(-c2ccc(F)c3c2CC[C@H]3Nc2ccc([C@H]3C[C@@H]3C(=O)O)cn2)c(F)c1F	Y
Nc1cc(F)c(-c2ccc(F)c3c2CC[C@H]3Nc2ccc([C@H]3C[C@@H]3C(=O)O)cn2)c(F)c1	Y

Q) Test whether the compound "N#Cc1cccc(C#N)c1-c1ccc(F)c2c1CC[C@H]2Nc1ccc([C@H]2C[C@@H]2C(=O)O)cn1" records solubility at 24 h of 100 µg/mL or higher.
A) Y

Q) Test whether the compound "Cc1cc(C(N)=O)cc(C)c1-c1ccc(F)c2c1CC[C@H]2Nc1ccc([C@H]2C[C@@H]2C(=O)O)cn1" records solubility at 24 h of 100 µg/mL or higher.
A) N

Q) Test whether the compound "Cc1cc(OCC(C)(C)C#N)cc(C)c1-c1ccc(F)c2c1CC[C@H]2Nc1ccc([C@H]2C[C@@H]2C(=O)O)cn1" records solubility at 24 h of 100 µg/mL or higher.
A) N
